B1: PTPRD (parent)
chain: ELDELLKEISRKRRSIRYGREVEL

- Variants of: B1
- Test description: protein stability index of a GFP-peptide fusion (GPS, HEK-293T) (PSI 1-6); higher = more stable;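 note: lentivirally expressed fusions sorted by FACS into six bins by GFP to DsRed ratio, PSI derived from sequencing read proportions per bin multiplied by bin number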
- Conditions: c terminus: a fixed tail appended
Assign class by protein stability index: not lower than 2 means T; lower than 2 means F.

(Q) Say whether ELDELLKEISRKRRSIRYGREVKL [E23K] shows protein stability index of 2 or more.
(A) F

(Q) Given ELDELLKEIARKRRSIRYGREVEL [S10A] , state whether its protein stability index is at least 2.
(A) T

(Q) Is the recorded value of protein stability index equal to or greater than 2 for this variant? ELDELLKEIIRKRRSIRYGREVEL [S10I]
(A) T

(Q) Determine whether measured protein stability index meets or exceeds 2 for ELHELLKEISRKRRSIRYGREVEL [D3H]
(A) T

(Q) protein stability index >= 2 for ELDELLKEISRKRKSIRYGREVEL [R14K] ?
(A) T

(Q) Does protein stability index meet or surpass 2 for ELDHLLKEISRKRRSIRYGREVEL [E4H] ?
(A) T

(Q) # bool: protein stability index of ELIELLKEISRKRRSIRYGREVEL [D3I] >= 2
(A) T

(Q) Please indicate if the recorded protein stability index for ELDELLKEISFKRRSIRYGREVEL [R11F] meets or exceeds 2.
(A) T

(Q) Does the reported protein stability index for ELDELLKEISRKRRSIRYGREVEN [L24N] fall at or above the 2 mark?
(A) T

(Q) Say whether GLDELLKEISRKRRSIRYGREVEL [E1G] shows protein stability index of 2 or more.
(A) T

(Q) Quick check, protein stability index >= 2? ELDELLDEISRKRRSIRYGREVEL [K7D]
(A) T

(Q) Confirm if protein stability index reported for the variant ELDELLKEISMKRRSIRYGREVEL [R11M] is 2 or above.
(A) T

(Q) Does protein stability index meet or surpass 2 for ELDELHKEISRKRRSIRYGREVEL [L6H] ?
(A) T

(Q) Textbook exercise: given the entry ELDELLKEISRKYRSIRYGREVEL [R13Y] , state whether its protein stability index is greater than or equal to 2.
(A) F

(Q) Is it the case that ELDELLKEIWRKRRSIRYGREVEL [S10W] has protein stability index reaching or exceeding 2?
(A) F

(Q) Assess whether reported protein stability index for ELDELLKEISRKRRNIRYGREVEL [S15N] sits at 2 or higher.
(A) T

(Q) Check this variant for protein stability index at or above 2: ELDELLKEISRKRRSTRYGREVEL [I16T]
(A) T

(Q) Given ELDELLKEISRKRRSYRYGREVEL [I16Y] , state whether its protein stability index is at least 2.
(A) F

Attribution: the supplement of paper PMC10567573
